Source of measurements: ChEMBL document CHEMBL3992538

# test_protocol: Selectivity index, ratio of GI50 for human A549 cells to MIC for dormant stage of Mycobacterium tuberculosis H37Ra ATCC 25177
# Format: toxicity
# condition_context: read-out: Selectivity Index
Please go through the items and note down their selectivity ratio.

>>> df
                            compound_smiles   measurement_kind  value
0  COc1cc(-c2nc(SCCCn3cnc4sc5c(c4c3=O)CCCC5)n(Cc3c(F)c(F)c(F)c(F)c3F)c(=O)c2C#N)cc(OC)c1OC  selectivity ratio    > 4

For every item in the list below, what is its measured selectivity ratio?
1. N#Cc1c(-c2ccc(O)cc2)[nH]c(=S)[nH]c1=O
2. Cc1ccc(-c2nc(S)nc(O)c2C#N)cc1
3. COc1cc(-c2nc(SCCCn3cnc4sc5c(c4c3=O)CCCC5)n(S(=O)(=O)c3ccc(C)cc3)c(=O)c2C#N)cc(OC)c1OC
4. CCCCCCc1cc2c(=O)n(CCSc3nc(-c4cc(OC)c(OC)c(OC)c4)c(C#N)c(=O)[nH]3)cnc2s1
5. CCCCCCCCn1c(SCCCn2cnc3sc4c(c3c2=O)CCCC4)nc(-c2cc(OC)c(OC)c(OC)c2)c(C#N)c1=O

Marked response:
1: < 3; 2: < 3; 3: > 3; 4: 5; 5: > 3

For every item in the list below, what is its measured selectivity ratio?
1. CCCc1cc2c(=O)n(CCCSc3nc(-c4cc(OC)c(OC)c(OC)c4)c(C#N)c(=O)[nH]3)cnc2s1
2. C#CCn1c(SCCCn2cnc3sc4c(c3c2=O)CCCC4)nc(-c2cc(OC)c(OC)c(OC)c2)c(C#N)c1=O
3. CCCCCCc1cc2c(=O)n(CCCSc3nc(-c4cc(OC)c(OC)c(OC)c4)c(C#N)c(=O)[nH]3)cnc2s1
4. COc1cc(-c2nc(SCCCn3cnc4sc5c(c4c3=O)CCCC5)n(Cc3ccccc3)c(=O)c2C#N)cc(OC)c1OC

Marked response:
["> 5", "> 3", 10, "> 3"]
